meta.source: the supplement of paper PMC13380429

- System: Vero E6
- testDetails: cell viability relative to DMSO; higher = less toxic
- measurementSetup: 72 h; 10 nM
This section presents compounds with their documented cell viability values.
# answer = value followed by unit

CCCCCS(=O)(=O)CCCCCCCCCCn1c(-c2ccc(O)cc2)c(C)c2cc(O)ccc21 :: 99.3%

Query: Recorded cell viability for Nc1ccc(C(=O)O)cc1 [potassium-p-aminobenzoate] , please?
Reply: 105%

Query: Item: "Oc1cc(O)cc(O)c1"
Reply: 102%

Query: Item: "CSc1nc(NC2CCCC2)c([N+](=O)[O-])c(NC2CCCC2)n1"
Reply: 98.3%

Query: Item: "C=CCNc1ncnc2ccc(Br)cc12"
Reply: 98.3%

Query: Item: C=CCc1cc(OC)c(O)c(C(=O)NCCO)c1 [alibendol]
Reply: 99.2%

---

- Tested on: Calu-3
- testDetails: cell viability relative to DMSO; higher = less toxic
- measurementSetup: 72 h; 10000 nM
measurementKind: cell viability (%)
Number in %, nothing else.

A selection of reference data follows.
Nc1nc2ccc(Cl)cc2c2nc(-c3ccco3)nn12 :: 84.9
CC[C@H](NC(=O)c1c(O)c(-c2ccccc2)nc2ccccc12)c1ccccc1 [talnetant] :: 106
C=C1/C(=C\C=C2/CCC[C@]3(C)[C@@H]([C@H](C)CCCC(C)C)CC[C@@H]23)C[C@@H](O)C[C@@H]1O [alfacalcidol] :: 101

For the next question, use this molecule.
Query: // fetch Calu-3 cell viability for COC(=O)c1ccc(N2CCN(C)CC2)c(NC(=O)c2cccc(OC)c2)c1 [WDR5-0103]
Reply: 97.8

---

- System: Vero E6
- testDetails: cell viability relative to DMSO; higher = less toxic
- measurementSetup: 72 h; 1000 nM
measurementKind: cell viability (%)
Number in %, nothing else.

A selection of reference data follows.
O=S(=O)(c1cccc2c(Cl)cccc12)N1CCCNCC1 :: 96.8
CCOCCn1c(N2CCCN(C)CC2)nc2ccccc21 :: 98.4
O=C1Nc2ccccc2/C1=C1/Nc2ccccc2C1=O :: 97.7

Query: Recorded cell viability for "COC(=O)c1ccc(N2CCN(C)CC2)c(NC(=O)c2cccc(OC)c2)c1" , please?
Reply: 102

Query: Item: "CCN(CC)C(=O)N1CCN(C)CC1"
Reply: 103

Query: Item: O=C(O)c1cc(O)c2c(c1)[C@H]([C@H]1c3cc(C(=O)O)cc(O)c3C(=O)c3c(O[C@@H]4O[C@H](CO)[C@@H](O)[C@H](O)[C@H]4O)cccc31)c1cccc(O[C@@H]3O[C@H](CO)[C@@H](O)[C@H](O)[C@H]3O)c1C2=O [sennoside-A]
Reply: 98.8

Query: Item: "CCCCCS(=O)(=O)CCCCCCCCCCn1c(-c2ccc(O)cc2)c(C)c2cc(O)ccc21"
Reply: 98.1

Query: Item: CCOc1nc2cccc(C(=O)OC(C)OC(=O)OC3CCCCC3)c2n1Cc1ccc(-c2ccccc2-c2nn[nH]n2)cc1 (stereo unspecified)
Reply: 104

Query: Item: "Oc1ccc2c3c1O[C@H]1c4c(c5ccccc5n4Cc4ccccc4)C[C@@]4(O)[C@@H](C2)N(CC2CC2)CC[C@]314"
Reply: 96.2

Query: Item: CC(=O)OCC(=O)[C@@]1(O)CC[C@H]2[C@@H]3CCC4=CC(=O)CC[C@]4(C)[C@H]3[C@@H](O)C[C@@]21C [hydrocortisone-acetate]
Reply: 95.4

Query: Item: "OC[C@H]1O[C@@H](c2ccc(F)c(Cc3cc4ccccc4s3)c2)[C@H](O)[C@@H](O)[C@@H]1O"
Reply: 99.4

Query: Item: Cc1ncc(CO)c(/C=N/NC(=O)c2ccncc2)c1O [pyridoxal-isonicotinoyl-hydrazone]
Reply: 97.4

Query: Item: C=CCc1cc(OC)c(O)c(C(=O)NCCO)c1 [alibendol]
Reply: 105

---

- System: Vero E6
- testDetails: cell viability relative to DMSO; higher = less toxic
- measurementSetup: 72 h; 1 nM
measurementKind: cell viability (%)
Number in %, nothing else.

A selection of reference data follows.
COC(=O)c1ccc(N2CCN(C)CC2)c(NC(=O)c2cccc(OC)c2)c1 :: 94.6
Clc1cccc(SC2CCNCC2)n1 :: 102
N=C(N)c1ccc(/N=N/Nc2ccc(C(=N)N)cc2)cc1 [diminazene-aceturate] :: 99.7
CCc1cc(Cl)c(OC)c(C(=O)NC[C@@H]2CCCN2CC)c1O [eticlopride] :: 107
CC(=O)/N=c1/[nH]c(C)c(-c2ccc(Cl)c(S(=O)(=O)NCCO)c2)s1 :: 106
CN1C(=O)CC(c2ccccc2)C1=O (stereo not given) [phensuximide] :: 104

Query: Recorded cell viability for CC[C@]1(O)C[C@@H]2CN(CCc3c([nH]c4ccccc34)[C@@](C(=O)OC)(c3cc4c(cc3OC)N(C)[C@H]3[C@@](O)(C(=O)OC)[C@H](OC(C)=O)[C@]5(CC)C=CCN6CC[C@]43[C@@H]65)C2)C1 [Vinblastine (sulfate)] , please?
Reply: 100

Query: Item: "CCOc1ccccc1N/N=C1/C(=O)N(c2nc(-c3ccccc3)cs2)N=C1C"
Reply: 98.8

Query: Item: CNc1cc(OC)c(C(=O)NC2CCN(Cc3ccccc3)C2C)cc1Cl (stereo not given) [nemonapride]
Reply: 99.1

Query: Item: "Cn1c(=O)[nH]c2ncn(C)c2c1=O"
Reply: 95.5

---

This section presents compounds with their documented cell viability values.
- Test system: Caco-2
- testDetails: cell viability relative to DMSO; higher = less toxic
- measurementSetup: 72 h; 1000 nM
Number in %, nothing else.

A selection of reference data follows.
O=C1OC(CN2CCOCC2)CN1/N=C/c1ccc([N+](=O)[O-])o1 (stereo not drawn) :: 99.8
NCCCS(=O)(=O)O [tramiprosate] :: 98.1

For the next question, use this compound.
Query: Recorded cell viability for "Nc1ncnc2c1ncn2[C@@H]1O[C@H](CO)[C@@H](O)[C@H]1O" , please?
Reply: 94.5

---

- System: Vero E6
- testDetails: cell viability relative to DMSO; higher = less toxic
- measurementSetup: 72 h; 1000 nM
measurementKind: cell viability (%)
Number in %, nothing else.

A selection of reference data follows.
CNC[C@@H]1CC[C@@H](N)[C@@H](O[C@H]2[C@H](O)[C@@H](O[C@H]3OC[C@](C)(O)[C@H](NC)[C@H]3O)[C@H](N)C[C@@H]2N)O1 :: 99.4
C=CC(=O)Nc1cc2c(Nc3ccc(F)c(Cl)c3)ncnc2cc1OCCCN1CCOCC1 :: 65.6
CC(=O)N1CC[N+](C)(C)CC1 :: 96.8

For the next question, use this compound.
Query: Recorded cell viability for CNC(=O)c1ccc2c(c1)S(=O)(=O)c1ccccc1C2=O [BW-616U] , please?
Reply: 109

---

- Tested on: Caco-2
- testDetails: cell viability relative to DMSO; higher = less toxic
- measurementSetup: 72 h; 10000 nM
measurementKind: cell viability (%)
Number in %, nothing else.

A selection of reference data follows.
Nc1ccc(-c2ccc3ncc4ccc(=O)n(-c5cccc(C(F)(F)F)c5)c4c3c2)cn1 :: 17.8
CCCCCCCCCCC(CO)CCCCCCCC (configuration not stated) :: 98.2

Query: // fetch Caco-2 cell viability for "CC1=CC(=O)c2ccccc2C1=O"
Reply: 94.2

Query: Item: "C=C1C(=O)O[C@@H]2C[C@@]3(C)CCC[C@H](C)C3=C[C@H]12"
Reply: 89.7

Query: Item: "CC(C)c1ccccc1Cc1cc(C(=O)Nc2ccc(S(=O)(=O)c3ccccc3C(C)(C)C)cc2)c(O)c(O)c1O"
Reply: 9.2

Query: Item: "Nc1ncnc2c1ncn2[C@@H]1O[C@H](CO)[C@@H](O)[C@H]1O"
Reply: 95.2

Query: Item: "Cc1nc(-c2cccnc2)sc1C(=O)Nc1ccccc1-c1cn2c(CN3CCOCC3)csc2n1"
Reply: 102

---

- Tested on: HepG2
- testDetails: cell viability relative to DMSO; higher = less toxic
- measurementSetup: 72 h; 1000 nM
This section presents compounds with their documented cell viability values.

A selection of reference data follows.
O=C(NCc1ccc2c(c1)OCO2)c1c(Cl)cccc1Cl :: 101%
CC(=O)OCC(=O)[C@@]1(O)CC[C@H]2[C@@H]3CCC4=CC(=O)C=C[C@]4(C)[C@@]3(F)[C@@H](O)C[C@@]21C [isoflupredone-acetate] :: 99.2%
CCCCCCCCCCCCCCCC(=O)C(F)(F)F :: 104%
Oc1ccc(-c2c(-c3ccccc3)nn3c(C(F)(F)F)cc(C(F)(F)F)nc23)cc1 :: 103%
NCCCCCCCCCCNS(=O)(=O)c1cccc2c(Cl)cccc12 :: 108%

For the next question, use this compound.
Query: Recorded cell viability for "C[C@]12CC[C@H](O)CC1=CC[C@@H]1[C@@H]2CC[C@]2(C)C(=O)CC[C@@H]12" , please?
Reply: 92.3%
